Entries and their pKi values follow.
target: α5β3γ2 GABAA R (Homo sapiens, UniProt P18507+P31644); assay: Binding activity on GABAA R: inhibition of [3H]Ro15-1788 binding, α5 containing receptor; conditions: ranges of the column heads; [3H]Ro15-1788, Ltk cell membranes
Sequence (P31644 32-462): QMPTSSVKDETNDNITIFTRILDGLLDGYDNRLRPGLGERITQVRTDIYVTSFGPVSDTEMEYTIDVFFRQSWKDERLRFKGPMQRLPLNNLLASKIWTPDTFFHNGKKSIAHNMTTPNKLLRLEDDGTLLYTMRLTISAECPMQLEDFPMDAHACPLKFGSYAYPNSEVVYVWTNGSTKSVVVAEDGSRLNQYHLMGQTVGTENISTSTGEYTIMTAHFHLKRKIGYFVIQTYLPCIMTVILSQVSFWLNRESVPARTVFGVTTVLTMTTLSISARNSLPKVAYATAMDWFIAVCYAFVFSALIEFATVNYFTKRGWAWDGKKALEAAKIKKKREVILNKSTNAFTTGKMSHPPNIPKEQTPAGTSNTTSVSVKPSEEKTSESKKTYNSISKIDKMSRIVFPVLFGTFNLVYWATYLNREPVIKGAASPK
Sequence (P28472 26-473 partner): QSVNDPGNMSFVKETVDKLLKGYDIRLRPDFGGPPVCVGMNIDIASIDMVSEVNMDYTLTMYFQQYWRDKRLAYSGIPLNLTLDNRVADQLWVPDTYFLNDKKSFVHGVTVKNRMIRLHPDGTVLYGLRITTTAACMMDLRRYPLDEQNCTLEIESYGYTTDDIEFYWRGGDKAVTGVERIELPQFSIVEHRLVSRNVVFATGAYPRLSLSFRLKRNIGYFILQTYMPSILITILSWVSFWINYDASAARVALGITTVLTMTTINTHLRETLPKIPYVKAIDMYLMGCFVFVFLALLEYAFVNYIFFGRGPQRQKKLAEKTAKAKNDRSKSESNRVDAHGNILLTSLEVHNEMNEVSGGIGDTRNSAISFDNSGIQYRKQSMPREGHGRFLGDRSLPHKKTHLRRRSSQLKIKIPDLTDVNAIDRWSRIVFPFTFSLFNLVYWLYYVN
Sequence (P18507 40-475): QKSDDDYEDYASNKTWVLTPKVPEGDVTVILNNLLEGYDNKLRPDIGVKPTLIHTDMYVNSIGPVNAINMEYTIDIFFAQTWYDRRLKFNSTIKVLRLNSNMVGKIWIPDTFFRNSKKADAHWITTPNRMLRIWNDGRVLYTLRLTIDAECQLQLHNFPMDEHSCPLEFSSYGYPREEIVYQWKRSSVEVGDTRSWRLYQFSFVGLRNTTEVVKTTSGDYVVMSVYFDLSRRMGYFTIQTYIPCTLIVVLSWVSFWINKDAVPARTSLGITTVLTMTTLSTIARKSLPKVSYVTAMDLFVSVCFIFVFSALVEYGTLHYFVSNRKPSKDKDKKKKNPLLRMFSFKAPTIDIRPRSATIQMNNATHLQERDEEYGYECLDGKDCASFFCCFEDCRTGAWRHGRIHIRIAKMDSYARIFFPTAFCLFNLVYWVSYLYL
pKi: −log10 of the molar value.

# COMPOUND, pKi
measured = [
    ("COc1ccc2c(c1)-c1nn(C)cc1Cc1c(-c3nc(C4CC4)no3)ncn1-2 [Compound 120]", "> 7.00"),
    ("Clc1ccc2c(c1)-c1nn(CC3CCOC3)cc1Cc1c(-c3cnn(Cc4ccccc4)c3)ncn1-2 (centres unmarked) [Compound 229]", "> 7.00"),
    ("COc1ccc2c(c1)-c1[nH]ncc1Cc1c(C#Cc3ccccn3)ncn1-2 [Compound 90]", "> 7.00"),
    ("COc1ccc2c(c1)-c1nn(CC3CCOC3)cc1Cc1c(-c3ncc(C)o3)ncn1-2 (centres unmarked) [Compound 287]", "> 7.00"),
    ("Cc1noc(-c2cnc3n2CC(=O)N(C)c2cc(Cl)ccc2-3)n1 [Compound 32]", "< 6.00"),
    ("CCOCc1nc(-c2ncn3c2Cc2cn(C)nc2-c2cc(Cl)ccc2-3)no1 [Compound 243]", "> 7.00"),
    ("Clc1ccc2c(c1)-c1nn(C3CCOC3)cc1Cc1c(-c3cnn(Cc4ccccc4)c3)ncn1-2 (centres unmarked) [Compound 274]", "> 7.00"),
    ("COc1ccc2c(c1)-c1oncc1Cc1c(C3=N[C@H](c4ccccc4)CO3)ncn1-2 [Compound 49]", "< 6.00"),
]

* * *

molecular target: GABAA R (α5β2γ2) (Homo sapiens, UniProt P18507+P31644); construct: expressed in transfected cells; experiment: Positive allosteric modulator activity: potentiation of EC20 GABA current in oocytes; format: cell-based; conditions: read-out: GABA α5 Functional Data: potentiation
Sequence (P31644 32-462): as the sequence (P31644 32-462) above
Sequence (P47870 25-512 partner limits assumed): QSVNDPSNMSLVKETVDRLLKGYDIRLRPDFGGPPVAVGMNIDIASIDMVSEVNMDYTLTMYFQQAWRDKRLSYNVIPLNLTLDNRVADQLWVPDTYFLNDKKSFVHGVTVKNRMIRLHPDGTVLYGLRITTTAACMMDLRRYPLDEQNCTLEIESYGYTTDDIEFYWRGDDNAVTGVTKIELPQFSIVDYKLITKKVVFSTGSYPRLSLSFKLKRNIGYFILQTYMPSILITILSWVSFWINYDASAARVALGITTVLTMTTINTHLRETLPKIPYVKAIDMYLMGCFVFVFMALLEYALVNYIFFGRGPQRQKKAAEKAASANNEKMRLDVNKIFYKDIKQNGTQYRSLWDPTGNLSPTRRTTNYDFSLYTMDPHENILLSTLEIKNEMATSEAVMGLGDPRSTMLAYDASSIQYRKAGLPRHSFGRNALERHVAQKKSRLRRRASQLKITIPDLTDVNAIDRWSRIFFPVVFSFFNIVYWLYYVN
Sequence (P18507 40-475): as the sequence (P18507 40-475) above
Recorded measurements of activation at 0.1 µM, one per entry
EXPERIMENTAL READOUT: activation at 0.1 µM

# COMPOUND, REPORTED RESULT
measured = [
    ("Cn1cc2c(n1)-c1cc(Cl)ccc1-n1cnc(-c3nnc(C4CCOC4)o3)c1C2 (stereo not shown)", "5 to 20%"),
    ("COc1ccc2c(c1)-c1nn(Cc3ccccc3)cc1Cc1c(-c3cnn(Cc4ccccc4)c3)ncn1-2", "20 to 50%"),
    ("CC(C)c1noc(-c2ncn3c2Cc2cn(Cc4ccccc4)nc2-c2cc(Cl)ccc2-3)n1", "5 to 20%"),
    ("CCn1cc2c(n1)-c1cc(Cl)ccc1-n1cnc(-c3noc(C4CC4)n3)c1C2", "5 to 20%"),
    ("COc1ccc2c(c1)-c1nn(C)cc1Cc1c(-c3noc(C(C)C)n3)ncn1-2", "20 to 50%"),
    ("COCc1nc(-c2ncn3c2Cc2cn(C)nc2-c2cc(OC)ccc2-3)no1", "20 to 50%"),
    ("COc1ccc2c(c1)-c1[nH]ncc1Cc1c(-c3noc(C4(OC)CC4)n3)ncn1-2", "> 50%"),
    ("COc1ccc2c(c1)-c1nn(CC3CCOC3)cc1Cc1c(-c3ncc(C)o3)ncn1-2 (stereo not shown)", "20 to 50%"),
    ("CCOC(=O)c1ncn2c1Cc1cnoc1-c1cc(Cl)ccc1-2", "5 to 20%"),
    ("CCn1cc2c(n1)-c1cc(Cl)ccc1-n1cnc(-c3nc(C4CCOC4)no3)c1C2 (stereo not shown)", "20 to 50%"),
    ("COc1ccc2c(c1)-c1n[nH]cc1Cc1c(-c3noc(C(C)(C)OC)n3)ncn1-2", "> 50%"),
    ("COc1ccc2c(c1)-c1[nH]ncc1Cc1c(C#Cc3ccnn3C)ncn1-2", "20 to 50%"),
    ("CC(C)c1noc(-c2ncn3c2Cc2cn(Cc4ccccn4)nc2-c2cc(Cl)ccc2-3)n1", "20 to 50%"),
    ("Cc1nc(-c2ncn3c2Cc2cn(C(C)C)nc2-c2cc(Cl)ccc2-3)no1", "5 to 20%"),
    ("CC(C)c1noc(-c2ncn3c2Cc2cn(Cc4cccnc4)nc2-c2cc(Cl)ccc2-3)n1", "5 to 20%"),
    ("COc1ccc2c(c1)-c1[nH]ncc1Cc1c(C#Cc3ccccn3)ncn1-2", "20 to 50%"),
    ("CCn1cc2c(n1)-c1cc(Cl)ccc1-n1cnc(-c3noc(C(C)C)n3)c1C2", "20 to 50%"),
    ("COC(C)(C)c1noc(-c2ncn3c2Cc2cn(C)nc2-c2cc(Cl)ccc2-3)n1", "5 to 20%"),
    ("COc1ccc2c(c1)-c1[nH]ncc1Cc1c(-c3noc(C(F)(F)F)n3)ncn1-2", "20 to 50%"),
]

* * *

biological target: GABAA R (α5β2γ2) (Homo sapiens, UniProt P18507+P31644); construct: expressed in transfected cells; assay: Positive allosteric modulator activity: potentiation of EC20 GABA current in oocytes; format: cell-based; conditions: read-out: GABA α5 Functional Data: potentiation, @ 100 nM, EC20 GABA; ranges of the column heads
Listed below: activation at 0.1 µM values for each entry.

# SMILES STRUCTURE, TEST SYSTEM, activation at 0.1 µM
data = [
    ("COc1ccc2c(c1)-c1nn(C)cc1Cc1c(-c3nc(C4COC4)no3)ncn1-2", "GABAA R (α5β2γ2) (Homo sapiens, UniProt P18507+P31644)", "20 to 50%"),
    ("Cn1cc2c(n1)-c1cc(Cl)ccc1-n1cnc(-c3nc(C(F)(F)F)no3)c1C2", "GABAA R (α5β2γ2) (Homo sapiens, UniProt P18507+P31644)", "5 to 20%"),
    ("Cc1nnc(-c2ncn3c2Cc2cn(C)nc2-c2cc(Cl)ccc2-3)o1", "GABAA R (α5β2γ2) (Homo sapiens, UniProt P18507+P31644)", "20 to 50%"),
    ("CC(C)n1cc2c(n1)-c1cc(Cl)ccc1-n1cnc(-c3ncco3)c1C2", "GABAA R (α5β2γ2) (Homo sapiens, UniProt P18507+P31644)", "5 to 20%"),
]

* * *

target: α5β3γ2 GABAA R (Homo sapiens, UniProt P18507+P31644); experiment: Binding activity on GABAA R: inhibition of [3H]Ro15-1788 binding, α5 containing receptor; settings: ranges of the column heads; [3H]Ro15-1788, Ltk cell membranes
Measured Ki values are reported for all entries that follow.

# COMPOUND, Ki
rows = [
    ("CN1C(=O)Cn2c(C3=N[C@H](c4ccccc4)CO3)cnc2-c2ccc(Cl)cc21 [Compound 29]", "> 1 µM"),
    ("FC(F)(F)c1noc(-c2ncn3c2Cc2cn(CC4CCOC4)nc2-c2cc(Cl)ccc2-3)n1 (stereo not drawn) [Compound 200]", "< 0.1 µM"),
    ("Cc1ccc(-c2noc(C)c2COc2ccc(C(=O)NC3CCOCC3)nn2)cn1 [Compound 238]", "< 0.1 µM"),
    ("Cc1nc(-c2ncn3c2Cc2cn(C(C)C)nc2-c2cc(Cl)ccc2-3)no1 [Compound 147]", "< 0.1 µM"),
    ("CCn1cc2c(n1)-c1cc(Cl)ccc1-n1cnc(-c3noc(C(C)C)n3)c1C2 [Compound 175]", "< 0.1 µM"),
    ("COC(C)(C)c1noc(-c2ncn3c2Cc2cn(C)nc2-c2cc(Cl)ccc2-3)n1 [Compound 233]", "< 0.1 µM"),
    ("COc1ccc2c(c1)-c1c(cnn1C)Cc1c(-c3nc(CN4CCOCC4)no3)ncn1-2 [Compound 329]", "0.1 to 1 µM"),
    ("Clc1ccc2c(c1)-c1[nH]ncc1Cc1c(C#Cc3ccccn3)ncn1-2 [Compound 94]", "< 0.1 µM"),
    ("CCn1cc2c(n1)-c1cc(Cl)ccc1-n1cnc(-c3nc(C(C)C)no3)c1C2 [Compound 104]", "< 0.1 µM"),
    ("C#Cc1ncn2c1Cc1cnoc1-c1cc(OC)ccc1-2 [Compound 51]", "> 1 µM"),
    ("COc1ccc2c(c1)-c1oncc1Cc1c(C3=N[C@@H](c4ccc(C(F)(F)F)cc4)CO3)ncn1-2 [Compound 50]", "> 1 µM"),
    ("CC(=O)N(C)Cc1noc(-c2ncn3c2Cc2cn(C)nc2-c2cc(Cl)ccc2-3)n1 [Compound 386]", "< 0.1 µM"),
    ("COCc1noc(-c2ncn3c2Cc2cn(CC4CCOC4)nc2-c2cc(OC)ccc2-3)n1 (stereo not drawn) [Compound 299]", "< 0.1 µM"),
    ("COc1ccc2c(c1)-c1n[nH]cc1Cc1c(-c3noc(C(C)(C)OC)n3)ncn1-2 [Compound 181]", "< 0.1 µM"),
    ("CCOC(=O)c1cnc2n1CC(=O)N(Cc1ccc(OC)cc1OC)c1cc(Cl)ccc1-2 [Compound 25]", "> 1 µM"),
    ("COc1ccc2c(c1)-c1[nH]ncc1Cc1c(-c3noc(C4(OC)CC4)n3)ncn1-2 [Compound 188]", "< 0.1 µM"),
    ("CCOC(=O)c1ncn2c1Cc1cnoc1-c1cc(Cl)ccc1-2 [Compound 57]", "< 0.1 µM"),
    ("COc1ccc2c(c1)-c1c(cnn1C)Cc1c(-c3nc(C)no3)ncn1-2 [Compound 18]", "0.1 to 1 µM"),
    ("COc1ccc2c(c1)-c1c(cnn1C)Cc1c(-c3noc(COCC(F)(F)F)n3)ncn1-2 [Compound 184]", "< 0.1 µM"),
    ("CCOC(=O)c1ncn2c1Cc1cnoc1-c1cc(OC)ccc1-2 [Compound 40]", "< 0.1 µM"),
    ("COc1ccc2c(c1)-c1nn(C)cc1Cc1c(-c3noc(C(C)C)n3)ncn1-2 [Compound 109]", "< 0.1 µM"),
    ("CC#Cc1ncn2c1Cc1cn[nH]c1-c1cc(OC)ccc1-2 [Compound 83]", "< 0.1 µM"),
    ("CC(C)Cc1noc(-c2ncn3c2Cc2cnoc2-c2cc(Cl)ccc2-3)n1 [Compound 66]", "> 1 µM"),
    ("Cn1cc2c(n1)-c1cc(Cl)ccc1-n1cnc(-c3nc(COC4CCOCC4)co3)c1C2 [Compound 346]", "< 0.1 µM"),
    ("CCn1cc2c(n1)-c1cc(Cl)ccc1-n1cnc(-c3noc(C4(OC)CC4)n3)c1C2 [Compound 198]", "< 0.1 µM"),
    ("CCn1cc2c(n1)-c1cc(Cl)ccc1-n1cnc(-c3noc(C4CC4)n3)c1C2 [Compound 176]", "< 0.1 µM"),
    ("COc1ccc2c(c1)-c1[nH]ncc1Cc1c(C#Cc3ccnn3C)ncn1-2 [Compound 39]", "< 0.1 µM"),
    ("Cn1cc2c(n1)-c1cc(Cl)ccc1-n1cnc(-c3noc(CCN4CCCC4=O)n3)c1C2 [Compound 383]", "< 0.1 µM"),
    ("Cc1noc(-c2cnc3n2CC(=O)Nc2cc(Cl)ccc2-3)n1 [Compound 26]", "> 1 µM"),
    ("COCCn1cc2c(n1)-c1cc(Cl)ccc1-n1cnc(-c3nc(C(C)C)no3)c1C2 [Compound 111]", "< 0.1 µM"),
    ("Cn1cc2c(n1)-c1cc(Cl)ccc1-n1cnc(-c3nc(CN4CCOCC4)no3)c1C2 [Compound 250]", "< 0.1 µM"),
    ("COc1ccc2c(c1)-c1c(cnn1CC1CCOC1)Cc1c(-c3nc(C(C)C)no3)ncn1-2 (stereo not drawn) [Compound 246]", "< 0.1 µM"),
    ("CC(C)c1noc(-c2ncn3c2Cc2cn(CC4CCOCC4)nc2-c2cc(Cl)ccc2-3)n1 [Compound 251]", "< 0.1 µM"),
]
